- System: UO-31 renal
- test name: NCI-60 one-dose screen, 48 h
- particulars: 10 µM unless noted
Compounds without any hit were thinned out: in the full panel of roughly 83,000, 20% have a hit. Calls of active or inactive are those of the source. How the source made its calls: active means growth percent below 10; inactive means the rest.
Outcome field: choose from Y = active, N = inactive

Ask: Could you please tell me the result logged for `Cc1c(C(=O)OCCCCOC(=O)c2c(C)n(C)c3scc[n+]23)[n+]2ccsc2n1C` in this assay?
Reply: N

Ask: Consider next the compound `CCN(c1cc(-c2ccc(CN3CCC(/C=C/S(=O)(=O)c4ccccc4)CC3)cc2)cc(C(=O)NCc2c(C)cc(C)[nH]c2=O)c1C)C1CCOCC1` in the same way.
Reply: N

Ask: Consider next the compound `COc1ccc(C/C(C)=C(/c2ccc(OCCN3CCCC3)cc2)c2ccc(OC(=O)NCc3ccccc3)cc2)cc1` in the same way.
Reply: N

Ask: Consider next the compound `C[C@]12CCc3c(ccc4cc(O)ccc34)[C@@H]1C[C@H](O)[C@@H]2O` in the same way.
Reply: N

Ask: Consider next the compound `O=C(Oc1ccc(CO[N+](=O)[O-])cc1)c1ccccc1` in the same way.
Reply: Y

Ask: Consider next the compound `NC(=O)c1c(NC(=O)/C=C/c2cccs2)sc2c1CCC(=O)C2` in the same way.
Reply: Y

Ask: Consider next the compound `COc1ccc(N2CCN(S(=O)(=O)c3oc(-c4ccccc4)nc3C#N)CC2)cc1` in the same way.
Reply: N

Ask: Consider next the compound `COc1cc(Nc2nc3ccccc3cc2C(=O)Nc2ccc(F)c(F)c2)cc(OC)c1OC` in the same way.
Reply: N

Ask: Consider next the compound COc1nc(=O)n(C2C=CC(=O)O2)cc1F (stereo not given) in the same way.
Reply: N

Ask: Consider next the compound CCN1C(=O)N(c2ccccc2)C2NC(=S)N(/N=C/C=C/c3ccccc3)C21 (stereo not given) in the same way.
Reply: N

Ask: Consider next the compound `O=C1/C(=C/c2cn(-c3ccccc3)nc2-c2ccccc2)SC(=S)N1c1ccc(Cl)cc1` in the same way.
Reply: N

Ask: Consider next the compound `Cc1[nH]c(C(=O)Nc2nc3ccc(NC(=O)CCN)cc3s2)c(Cl)c1Cl` in the same way.
Reply: N

Ask: Consider next the compound `N=C(N)c1ccc(-c2ccc(-c3ccc(F)cc3)s2)nc1` in the same way.
Reply: N

----------
- System: A549/ATCC NSCLC
- test name: NCI-60 one-dose screen, 48 h
- particulars: 10 µM unless noted
Compounds without any hit were thinned out: in the full panel of roughly 83,000, 20% have a hit. The source made the active and inactive calls. The calls were made as follows: active = growth percent below 10; inactive = the rest.
Outcome field: choose from T for active, F for inactive

Worked set:
O=C(CCCCCCCCC(=O)N/N=C\c1ccccc1O)N/N=C\c1ccccc1O    F
C=CCOc1ccc(/C=C2\SC(=S)N(CCc3ccc(O)cc3)C2=O)cc1    F
CC1(C)C(N)=Nc2cc(OCCCN3Cc4ccc(OCCc5cn(CC(=O)N6CCC(CCN7CCCC7)CC6)nn5)cc4C3)c(OCC3CC3)cc21    F

Ask: Could you please tell me the result logged for `Cc1ccc(S(=O)(=O)Nc2cc(Sc3ccccc3)c(O)c3ccccc23)cc1` in this assay?
Reply: F

Ask: Consider next the molecule `COCCn1cc(-c2nc(-c3cn(CCOC)c4ncccc34)cs2)c2ccccc21` in the same way.
Reply: F

Ask: Consider next the molecule `COc1ccc(-c2csc(NC(=O)CN3CCN(CCO)CC3)n2)cc1NS(=O)(=O)c1cccc2c(N(C)C)cccc12` in the same way.
Reply: F

Ask: Consider next the molecule `N#C/C(=N\Nc1ccc(Cl)cc1)C(=O)Nc1cc(-c2ccccc2)nn1-c1ccccc1` in the same way.
Reply: F

Ask: Consider next the molecule `CC(=O)c1nn(-c2ccccc2)/c(=N/N=Cc2cn(-c3ccccc3)nc2-c2cc3ccccc3oc2=O)s1` in the same way.
Reply: F

Ask: Consider next the molecule `O=[N+]([O-])c1cc(C(F)(F)F)ccc1Sc1ccc(C(F)(F)F)cc1[N+](=O)[O-]` in the same way.
Reply: F

Ask: Consider next the molecule `Cc1n(Cc2ccc3ccccc3c2)c(Cl)c(Cl)[n+]1Cc1ccc2ccccc2c1` in the same way.
Reply: F

Ask: Consider next the molecule `O=C1C(Nc2ccc(Cl)cc2)=C(I)C(=O)c2ncccc21` in the same way.
Reply: F
